System: DOHH-2
Test: Antiproliferative activity against human DOHH-2 cells assessed as inhibition of cell proliferation by MTT assay
Assay type: functional, cell-based
Readout Kind: IC50 (µM)

In [3]: df
Out[3]:
                                        smi  readout_kind  value
0  C=C(Cl)C(=O)N1CCC[C@H](n2nc(-c3ccc(Oc4ccccc4)cc3)c3c(N)ncnc32)C1          IC50   0.22

###

Target: Tyrosine-protein kinase BTK (Homo sapiens, UniProt Q06187)
Sequence (Q06187 whole entry): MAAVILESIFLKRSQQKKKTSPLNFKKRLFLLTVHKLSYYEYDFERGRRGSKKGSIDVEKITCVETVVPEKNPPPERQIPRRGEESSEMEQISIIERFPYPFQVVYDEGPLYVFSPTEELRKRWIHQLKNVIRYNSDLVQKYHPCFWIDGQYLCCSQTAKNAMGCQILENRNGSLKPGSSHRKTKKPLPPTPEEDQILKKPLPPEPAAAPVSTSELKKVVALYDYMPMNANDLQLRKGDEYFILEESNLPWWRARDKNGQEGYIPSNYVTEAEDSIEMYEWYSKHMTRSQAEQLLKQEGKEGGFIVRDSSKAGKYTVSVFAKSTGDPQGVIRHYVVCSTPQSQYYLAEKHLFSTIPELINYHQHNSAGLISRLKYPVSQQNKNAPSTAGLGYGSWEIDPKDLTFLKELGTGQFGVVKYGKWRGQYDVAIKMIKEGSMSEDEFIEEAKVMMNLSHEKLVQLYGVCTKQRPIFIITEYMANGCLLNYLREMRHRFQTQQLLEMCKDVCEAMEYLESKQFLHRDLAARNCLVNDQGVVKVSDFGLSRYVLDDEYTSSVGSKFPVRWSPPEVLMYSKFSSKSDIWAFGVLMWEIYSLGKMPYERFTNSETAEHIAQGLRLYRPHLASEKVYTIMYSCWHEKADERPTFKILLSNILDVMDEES
Assay: Inhibition of BTK (unknown origin) incubated for 40 mins by radiometric assay
Readout Kind: IC50

                                   compound  readout_kind  value
0  Nc1ncnc2c1c(-c1ccc(Oc3ccccc3)nc1)nn2C1CCCN(C(=O)CCl)C1 (centres undefined)          IC50  36 nM
1  Nc1ccc(Cn2nc(-c3ccc(Oc4ccccc4)cc3)c3c(N)ncnc32)cc1          IC50  82 nM
2  Nc1ncnc2c1c(-c1ccc(Oc3ccccc3)cc1)nn2Cc1cccc(NC(=O)CCl)c1          IC50  27 nM
3  Nc1cccc(Cn2nc(-c3ccc(Oc4ccccc4)cc3)c3c(N)ncnc32)c1          IC50  75 nM
